Test: protein stability index of a GFP-peptide fusion (GPS, HEK-293T) (PSI 1-6); higher = more stable;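 note: 24-mer peptide tiles fused after GFP, lentivirally expressed, FACS-sorted into six equal bins by GFP/DsRed ratio, decoded by Illumina sequencing, PSI is the read-weighted mean bin number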
Details: treatment: DMSO; c terminus: a fixed tail appended

{"residueSequence": "RVQPVKDTAHDFRAKCRNMEHALR [TRIM35]", "protein stability index": 2.96}
{"residueSequence": "VAEKVVVITKHNDDEQYAWESSAG [HSP90AB1]", "protein stability index": 4.53}
{"residueSequence": "LPAEARERSRGRSISRGRHARTHP [MATN2]", "protein stability index": 5.05}
{"residueSequence": "HRKRGSQPPDMASALTDRTSRAPS [RSPH3]", "protein stability index": 4.89}
{"residueSequence": "SDSGKDLPEPSKRGPPHGWPKLCP [MYCL]", "protein stability index": 4.27}
{"residueSequence": "SQDALRVVSTSGEQMKVYKCEHCR [IKZF1]", "protein stability index": 4.29}
{"residueSequence": "EKAFSYRQMAFDFARVKKGADGVM [SNAP91]", "protein stability index": 2.67}
{"residueSequence": "PHVALAVRYNRVGILRRILRTLRD [ANKRD9]", "protein stability index": 2.73}
{"residueSequence": "KLLNRCCHLFSTYVASHKIEKEEQ [ACBD3]", "protein stability index": 2.21}
{"residueSequence": "LKEGMLMKIKQDRASRTYELQNQL [FSD1]", "protein stability index": 3.05}
{"residueSequence": "EDEDEDEDEDEDKEEEEEDCSEEY [TAF7L]", "protein stability index": 5.65}
{"residueSequence": "QRPVSRQVTCLRTQVLEDSEDSFC [TRAF3IP2]", "protein stability index": 4.68}
{"residueSequence": "PEVILELGWAQPCDVWSIGCILFE [CLK3]", "protein stability index": 2.63}

====

Test: protein stability index of a GFP-peptide fusion (GPS, HEK-293T) (PSI 1-6); higher = more stable
Settings: treatment: MLN4924 1 uM, 8 h; c terminus: native

{"residueSequence": "FHINQTLREAHFHSLQHRGRPLT [FAM104A]", "protein stability index": 2.2}
{"residueSequence": "NPAVRTAAANAAAGAAENAFRAP [SCAMP3]", "protein stability index": 3.36}
{"residueSequence": "MYLKQLAEYRKYIHSRKCRCLVM [RHOBTB3]", "protein stability index": 2}
{"residueSequence": "LRVSPDGTAFCSGSWDHTLRVWA [GNB5]", "protein stability index": 2.77}
{"residueSequence": "FKLKPLSNKTATDDTGGKDPRNV [PLD5]", "protein stability index": 4.89}
{"residueSequence": "TLQQFNIKLRPPGAEKPSWLEEQ [ARFIP2]", "protein stability index": 3.62}
{"residueSequence": "HKRISAFRALQHSYLHKDEGNPE [CDK4]", "protein stability index": 4.04}

====

Assay: protein stability index of a GFP-peptide fusion (GPS, HEK-293T) (PSI 1-6); higher = more stable
Conditions: treatment: MLN4924 1 uM, 8 h; c terminus: a fixed tail appended
Classify by measured protein stability index: Yes if it is equal to or exceeds 3, No if it is smaller.

{"residueSequence": "APPPADSAPQQNGQPLRPLVPDAS [PDLIM7]", "assignedLabel": "Yes"}
{"residueSequence": "LEEYITDEQKEEEEEEGEEEELIR [FAM9B]", "assignedLabel": "Yes"}
{"residueSequence": "KKAEKKLEENPYDLDAWSILIREA [CSTF3]", "assignedLabel": "Yes"}
{"residueSequence": "NMERFGEDNLEDDDVEMKNGITQG [CDC14A]", "assignedLabel": "Yes"}
{"residueSequence": "RPLRSREFPQFEPQRYPACAQMLP [TRAF3IP2]", "assignedLabel": "Yes"}
{"residueSequence": "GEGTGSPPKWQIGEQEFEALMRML [ADD1]", "assignedLabel": "Yes"}
{"residueSequence": "PKPLTRKPILLQRMEGSQEVVNMA [WDFY2]", "assignedLabel": "Yes"}
{"residueSequence": "RAYGFRGPGPQLRRGWRPSSREDS [CHGA]", "assignedLabel": "Yes"}
{"residueSequence": "LSHSPQEDWVLLGMANGQQWLQST [TLE6]", "assignedLabel": "No"}
{"residueSequence": "ALGTSWTLPLQDRELGPEELDELQ [CABP4]", "assignedLabel": "Yes"}
{"residueSequence": "LQLAIPRENAQISLDGDVTFFGAL [TNFSF13B]", "assignedLabel": "No"}
{"residueSequence": "LPDGCQPLQLLREMRQALQALLKE [CBY2]", "assignedLabel": "No"}
